assay: Pharmacokinetic (PK) studies in Balb/c mouse; format: in vivo; details: mouse, in vivo; female Balb/c mice, PO, 10 mg/kg, blood (TNO-155: plasma); read-out: AUClast
recorded-endpoint: AUC(0-t) (ng·h/mL)
Field: numeric (ng·h/mL). Do not append units.

// C[C@@H]1OCC2(CCN(c3ncc(Sc4ccnc(N5CC(C(C)(C)O)C5)c4Cl)nc3CO)CC2)[C@@H]1N [Example 12] : AUC(0-t) value = 12300

###

assay: Pharmacokinetic (PK) studies in Balb/c mouse; assay type: in vivo; conditions: mouse, whole blood (TNO-155: plasma); female Balb/c mice, IV, 1 mg/kg, blood (TNO-155: plasma); read-out: AUClast
recorded-endpoint: AUC(0-t)
Kindly report the value followed by its unit.

// C[C@@H]1OCC2(CCN(c3cnc(Sc4ccnc(N)c4Cl)c(N)n3)CC2)[C@@H]1N [TNO-155, reference compound] : AUC(0-t) value = 672 ng·h/mL

###

Attribute: IC50
tested on: KYSE-520 cell (human esophageal squamous cell carcinoma cell); assay: Inhibition of the proliferation activity of KYSE-520 cell (CellTiter-Glo); assay type: cell-based; details: 120 h, KYSE-520 cell proliferation, 5 days
Field: numeric (nM). Do not append units.

Examples with their reported IC50 follow.
INSERT INTO results (compound, recorded_endpoint, quantitative_readout) VALUES
  ('C[C@@H]1OCC2(CCN(c3ncc(Sc4ccnc(N5CC(CC#N)C5)c4Cl)nc3CO)CC2)[C@@H]1N', 'IC50', 60),
  ('C[C@@H]1OCC2(CCN(c3ncc(Sc4ccnc(NCC5(O)CC5)c4Cl)nc3CO)CC2)[C@@H]1N', 'IC50', 40);

// "CC(C)(O)C1CN(c2nccc(Sc3cnc(N4CCC5(CC4)Cc4ncccc4[C@H]5N)c(CO)n3)c2Cl)C1" : IC50 value = 40

###

Molecular target: recombinant full-length human PTPN11 (SHP2) (Homo sapiens)
Construct: recombinant full-length human PTPN11 (SHP2), active (SignalChem); purchased SignalChem
Sequence (Q06124 1-593): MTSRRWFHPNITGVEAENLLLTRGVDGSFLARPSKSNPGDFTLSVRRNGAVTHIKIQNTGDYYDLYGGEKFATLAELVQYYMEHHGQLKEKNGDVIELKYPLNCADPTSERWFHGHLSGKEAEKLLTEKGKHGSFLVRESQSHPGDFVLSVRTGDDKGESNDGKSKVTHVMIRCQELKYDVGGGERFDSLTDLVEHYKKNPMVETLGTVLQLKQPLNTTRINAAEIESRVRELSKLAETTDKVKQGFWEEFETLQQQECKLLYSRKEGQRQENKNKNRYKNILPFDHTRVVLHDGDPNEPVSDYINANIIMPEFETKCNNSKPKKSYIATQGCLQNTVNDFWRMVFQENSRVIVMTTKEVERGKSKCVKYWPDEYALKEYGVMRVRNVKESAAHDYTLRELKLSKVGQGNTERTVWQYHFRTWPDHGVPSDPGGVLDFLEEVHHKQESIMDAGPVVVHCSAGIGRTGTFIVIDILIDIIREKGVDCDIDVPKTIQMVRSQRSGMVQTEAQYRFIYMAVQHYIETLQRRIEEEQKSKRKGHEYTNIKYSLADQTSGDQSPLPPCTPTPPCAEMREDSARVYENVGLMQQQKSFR
Assay: Inhibition of in vitro enzyme activity of SHP2 (DiFMUP fluorescence endpoint assay)
Assay type: biochemical
Details: SHP2 0.5 nM, DiFMUP 200 μM, IRS-1 0.5 μM; 60 min incubation
Attribute: IC50
Kindly report the value followed by its unit.

Examples with their reported IC50 follow.
INSERT INTO results (chemical_structure, result) VALUES
  ('CC(C)(O)C1CN(c2nccc(Sc3cnc(N4CCC5(CC4)Oc4ccc(F)cc4[C@H]5N)c(CO)n3)c2Cl)C1', '6.9 nM'),
  ('C[C@@H]1OCC2(CCN(c3cnc(Sc4ccnc(N5CC(CS(C)(=O)=O)C5)c4Cl)c(N)n3)CC2)[C@@H]1N', '5.3 nM');

# context switch: different compound, same IC50
// "CC(C)(O)C1CN(c2nccc(Sc3ncc(N4CCC5(CC4)Cc4ncccc4[C@H]5N)nc3N)c2Cl)C1" : IC50 value = 2.6 nM
